target: human MGL from HeLa cells (Homo sapiens (Human), UniProt Q99685); experiment: MGL in vitro activity assay ([glycerol-1,3-3H]-oleoyl glycerol hydrolysis, activated carbon filtration); conditions: 300 nM [Glycerol-1,3-3H]-oleoyl glycerol, one hour
Sequence (Q99685 whole entry): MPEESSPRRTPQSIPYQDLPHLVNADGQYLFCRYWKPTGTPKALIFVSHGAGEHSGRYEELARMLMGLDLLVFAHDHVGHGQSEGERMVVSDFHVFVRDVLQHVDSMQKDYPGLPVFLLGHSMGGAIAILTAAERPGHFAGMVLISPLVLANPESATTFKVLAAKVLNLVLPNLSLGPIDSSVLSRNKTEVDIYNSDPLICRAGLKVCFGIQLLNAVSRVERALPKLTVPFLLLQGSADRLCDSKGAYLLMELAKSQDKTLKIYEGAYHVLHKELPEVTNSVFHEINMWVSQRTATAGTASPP
pIC50: −log10 of the molar value.
Our labelling divides records by pIC50 into ranges: group 1 (below 7), group 2 (7 to below 8), group 3 (8 or more)

Some solved entries appear below for comparison.
{"Compound": "C[C@]1(O)C[C@@H](C(=O)N2CC3(CCC(c4ccc5ccccc5n4)CC3)C2)C1", "Assigned class": "group 1"}
{"Compound": "C[C@@H](c1ccccc1)C1CC2(C1)CN(C(=O)[C@H]1C[C@@](C)(O)C1)C2 (stereo in doubt)", "Assigned class": "group 2"}

Read the next record carefully.
Ask: Note: place this compound into its band. Item: Cn1cc(C2CCC3(C2)CN(C(=O)[C@H]2C[C@@](C)(O)C2)C3)c(C(F)(F)F)n1 (mixture of isomers)
Reply: group 1

====

Catalogue of molecules with associated pIC50
molecular target: human MGL from HeLa cells (Homo sapiens (Human)); test: MGL in vitro activity assay ([glycerol-1,3-3H]-oleoyl glycerol hydrolysis, activated carbon filtration); type: biochemical; conditions: 300 nM [Glycerol-1,3-3H]-oleoyl glycerol, one hour
Units for pIC50: none; it is -log10 of a concentration expressed in mol/L.

Past entries and their recorded results:
{"Molecule": "Cc1cc(C(F)(F)F)cnc1OC1CC2(CCN(C(=O)[C@H]3C[C@@](C)(O)C3)CC2)C1 [Example 481]", "Assay system": "human MGL from HeLa cells (Homo sapiens (Human))", "Measured parameter": "pIC50", "Endpoint value": 7.82}
{"Molecule": "COc1ccc(C2CCC3(CC2)CN(C(=O)[C@H]2C[C@@](C)(O)C2)C3)cc1C [Example 105]", "Assay system": "human MGL from HeLa cells (Homo sapiens (Human))", "Measured parameter": "pIC50", "Endpoint value": 7.17}
{"Molecule": "C[C@]1(O)C[C@@H](C(=O)N2CC3(CCC(Cc4ccc(OC(F)F)cc4)C3)C2)C1 (mixture of isomers) [Example 183]", "Assay system": "human MGL from HeLa cells (Homo sapiens (Human))", "Measured parameter": "pIC50", "Endpoint value": 7.32}
{"Molecule": "Cc1nn(C)c2cc(CC3CC4(C3)CN(C(=O)[C@H]3C[C@@](C)(O)C3)C4)ccc12 [Example 302]", "Assay system": "human MGL from HeLa cells (Homo sapiens (Human))", "Measured parameter": "pIC50", "Endpoint value": 7.68}
{"Molecule": "Cc1ccc(C2CCC3(C2)CN(C(=O)[C@H]2C[C@@](C)(O)C2)C3)cc1OC(F)F (mixture of isomers) [Example 82]", "Assay system": "human MGL from HeLa cells (Homo sapiens (Human))", "Measured parameter": "pIC50", "Endpoint value": 7.51}

Next molecule, please.
Ask: // fetch human MGL from HeLa cells (Homo sapiens (Human)) pIC50 for Cc1ccc([C@H]2CCC3(C2)CN(C(=O)[C@H]2C[C@@](C)(O)C2)C3)c(C)c1 (stereo in doubt) [Example 321]
Reply: 7.44

====

biological target: human MGL from HeLa cells (Homo sapiens (Human), UniProt Q99685); test: MGL in vitro activity assay ([glycerol-1,3-3H]-oleoyl glycerol hydrolysis, activated carbon filtration); conditions: 300 nM [Glycerol-1,3-3H]-oleoyl glycerol, one hour
Measured parameter: pIC50
Here pIC50 is given on a logarithmic scale as minus log10 of the concentration in mol/L.

Please review the following examples before continuing.
{"Molecule": "Cc1ccc(CC2CC3(C2)CN(C(=O)[C@H]2C[C@@](C)(O)C2)C3)c(F)c1", "Measured parameter": "pIC50", "Endpoint value": 8.19}
{"Molecule": "Cc1nc(OC2CC3(C2)CN(C(=O)[C@H]2C[C@@](C)(O)C2)C3)ccc1C(F)(F)F", "Measured parameter": "pIC50", "Endpoint value": 6.89}
{"Molecule": "C[C@]1(O)C[C@@H](C(=O)N2CC3(CCC(Cc4cccc(C(F)F)c4)CC3)C2)C1", "Measured parameter": "pIC50", "Endpoint value": 7.21}
{"Molecule": "CC(C)c1cccc([C@H]2CCC3(C2)CN(C(=O)[C@H]2C[C@@](C)(O)C2)C3)c1 (stereo in doubt)", "Measured parameter": "pIC50", "Endpoint value": 7.77}

In the following, a different molecule is considered.
Ask: What measured pIC50 goes with C[C@]1(O)C[C@@H](C(=O)N2CC3(CC(Cn4ccc5cccnc54)C3)C2)C1 ?
Reply: 7.05
